# experimentNotes: Tariquidar or elacridar concentrations in plasma and brain by LC/MS
# Assay type: in vivo
# conditionsUsed: rat, brain, iv, 15 mg/kg
propertyName: Kp at 3 h
Give the figure by itself; no unit, no explanation.

Output measured Kp at 3 h for this item: COc1cc2c(cc1OC)CN(CCc1ccc(NC(=O)c3cc(OC)c(OC)cc3NC(=O)c3cnc4ccccc4c3)cc1)CC2 [tariquidar, Tariquidar dimesylate]
1.7

====

# experimentNotes: Tariquidar or elacridar concentrations in plasma and brain by LC/MS
# Type: in vivo
# conditionsUsed: rat, plasma, intravenous, 5 mg/kg
Where a name gives a salt, the structure may show the parent alone.
propertyName: concentration at 180 min
Answer by giving the amount and then stating its unit.

Output measured concentration at 180 min for this item: COc1cc2c(cc1OC)CN(CCc1ccc(NC(=O)c3cccc4c(=O)c5cccc(OC)c5[nH]c34)cc1)CC2 [elacridar, elacridar hydrochloride]
316 ng/mL
